System: PPARg:RXRa IVT, anti-PPARg (NR concentration 270 nM, RXRa partner concentration 90 nM)
Test: PBM binding z-score (relative to random genomic background probes); higher = stronger binding; sequences stand for … in GC…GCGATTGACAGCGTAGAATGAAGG
# PBM binding z-score annotations
Lab note: jot the number down without any unit.

Below are worked cases with known answers.
sequence-entry: GCATGTAGATCAAGGTTAAGAAAGACTAAGCTAA
experimental-value: 0.797
--
sequence-entry: ATCTCTAGGTAAGACTCAGTTCAGGGAAGAACGC
experimental-value: 0.842
--
sequence-entry: CCAGACAGGTGAAAGGTTACTCAGTCTGGTACGC
experimental-value: 3.47
--
sequence-entry: ATCGAAAGGTCGTAGGTGAGTATACCCACCCGAA
experimental-value: 2.34
--
sequence-entry: GCTAGCAGGCCATTTGGGTCACTCATTGACGGGC
experimental-value: 1.84

Record lookup: for PPARg:RXRa IVT, anti-PPARg (NR concentration 270 nM, RXRa partner concentration 90 nM), what PBM binding z-score belongs to `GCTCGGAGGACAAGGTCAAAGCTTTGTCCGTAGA` ?
2.07

Query PBM binding z-score on PPARg:RXRa IVT, anti-PPARg (NR concentration 270 nM, RXRa partner concentration 90 nM) for `ACTATTAGTTTACTTAGGGCAACCGATACGACGC`
0.924

Any idea what PBM binding z-score came out for `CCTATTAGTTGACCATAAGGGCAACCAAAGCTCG` on PPARg:RXRa IVT, anti-PPARg (NR concentration 270 nM, RXRa partner concentration 90 nM)?
0.63

Request - read-out PBM binding z-score | tested on PPARg:RXRa IVT, anti-PPARg (NR concentration 270 nM, RXRa partner concentration 90 nM) | sequence `CCTCGGAGGACAGCAGGAGGTCAGAGCTGCCAGA`
-0.212

Can you look up PBM binding z-score on PPARg:RXRa IVT, anti-PPARg (NR concentration 270 nM, RXRa partner concentration 90 nM) for `TAGCCTAGGTCATGCGCGCCAGTATAGTGTCGGC` ?
3.17

PPARg:RXRa IVT, anti-PPARg (NR concentration 270 nM, RXRa partner concentration 90 nM) / PBM binding z-score / `CCAGACAGGTGAGAAGGTAACTCAACCTCGATTA` : value?
0.742

----------
Listing of recorded PBM binding z-score by entry.
System: PXR homodimer (NR concentration 270 nM)
Test: PBM binding z-score (relative to random genomic background probes); higher = stronger binding; sequences stand for … in GC…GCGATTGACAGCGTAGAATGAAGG
Field format: numeric only.

sequence-entry: GCTGCTAGGTCAACTGATGGTAAGCTAAAGCTCG
experimental-system: PXR homodimer (NR concentration 270 nM)
PBM binding z-score: -0.824

sequence-entry: CAAGCTAGGTCAAGGTCAAAGTCGGTTTGTGCCA
experimental-system: PXR homodimer (NR concentration 270 nM)
PBM binding z-score: 1.35

sequence-entry: TCTATTAGTTGAAGGGCACCCGACGAGTCCGTTT
experimental-system: PXR homodimer (NR concentration 270 nM)
PBM binding z-score: 1

sequence-entry: TTTTGTAGATCAAAGGTTAAGAAAGCCGAAGCCT
experimental-system: PXR homodimer (NR concentration 270 nM)
PBM binding z-score: -0.0288

sequence-entry: ATCTCTAGGTAAGACTCAGTTCAGTGCAGAACGC
experimental-system: PXR homodimer (NR concentration 270 nM)
PBM binding z-score: 1.56

Field request: PBM binding z-score | item: `ATATTTAGGTTATCGGGTCATTCAGTTTGCGCAT`
8.95

Which PBM binding z-score is reported for this sequence? `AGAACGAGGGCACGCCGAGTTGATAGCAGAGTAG`
0.119

Reported PBM binding z-score for `CGTCCAAGGTCATAGGAGGTCAGTGATGACAGAT` : what is it?
3.48

Which value of PBM binding z-score has been reported for `ATATGTGGGTTAGCTGGGGTCATTCAGACTAGGC` in the records?
6.39

Could you share which PBM binding z-score value was measured for `CCGACTGGGGCAAGGTTCCCATAACGCACAGCCA` ?
-0.376

Name the reported PBM binding z-score value associated with the sequence `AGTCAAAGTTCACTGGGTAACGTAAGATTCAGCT`
3.47

May I ask what PBM binding z-score has been recorded for `GTTCCAAGGTGAATAGGTCGTTGATGAGTAGGCG` ?
0.352

----------
System: RARa homodimer (NR concentration 270 nM)
Assay: PBM binding z-score (relative to random genomic background probes); higher = stronger binding; sequences stand for … in GC…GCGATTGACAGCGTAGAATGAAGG
Measured PBM binding z-score values are reported for all entries that follow.

Below: 3 sequences and their reported PBM binding z-score.
sequence-entry: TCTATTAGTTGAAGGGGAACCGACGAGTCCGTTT
PBM binding z-score: 1.8
--
sequence-entry: AGTCAAAGTTCACTAGGAAACGTAAGATTCAGCT
PBM binding z-score: 0.899
--
sequence-entry: TCAGAAAGGTGAAGGTAACTCAGGTACGCAGTCG
PBM binding z-score: 0.504

// query PBM binding z-score value for entry `TCTCGGAGGACACGAAGGTCAGAGCGTTCCAGAG`
-0.476

Which value of PBM binding z-score has been reported for `TCTTGTAGATCAATAGATGTTAAGAAAGTGCGCT` in the records?
0.125

Param item = `GCGACTGAGGCAAAGCAGGTTACCATAAGGTTGG` ; retrieve measured PBM binding z-score.
-0.323

----------
System: PXR:RXRa (NR concentration 270 nM, RXRa partner concentration 90 nM)
Assay: PBM binding z-score (relative to random genomic background probes); higher = stronger binding; sequences stand for … in GC…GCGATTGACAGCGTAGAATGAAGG
Collected PBM binding z-score values appear next to each entry.
Hey, just send me the number, nothing else.

sequence-entry: TAGCCTAGGTCATGGGCCACTATACCACGCGAAC
experimental-system: PXR:RXRa (NR concentration 270 nM, RXRa partner concentration 90 nM)
PBM binding z-score: 1.72
--
sequence-entry: CCTAGTTGGACAGGAGGTCACACACCGGATATGA
experimental-system: PXR:RXRa (NR concentration 270 nM, RXRa partner concentration 90 nM)
PBM binding z-score: 4.13
--
sequence-entry: TAGCCTGGGTCAGATCGGGCCAGTATACGCTATA
experimental-system: PXR:RXRa (NR concentration 270 nM, RXRa partner concentration 90 nM)
PBM binding z-score: 0.931
--
sequence-entry: CCTTACAGGTCACTGACAGGTTATAGCATTTGGA
experimental-system: PXR:RXRa (NR concentration 270 nM, RXRa partner concentration 90 nM)
PBM binding z-score: 3.86

Form field: PBM binding z-score recorded for `CCTGCTAGGTCAATGGTCAGCTATAGCAGCTCGC` with PXR:RXRa (NR concentration 270 nM, RXRa partner concentration 90 nM) (enter value)
0.849

Any idea what PBM binding z-score came out for `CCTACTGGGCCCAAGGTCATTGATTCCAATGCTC` on PXR:RXRa (NR concentration 270 nM, RXRa partner concentration 90 nM)?
3.24

Find the measured PBM binding z-score: item `GCTGCTAGGTCAGGTTGGTAAGCTAACGGGTACG` , target or system PXR:RXRa (NR concentration 270 nM, RXRa partner concentration 90 nM).
-0.0241

Request: PBM binding z-score, test system PXR:RXRa (NR concentration 270 nM, RXRa partner concentration 90 nM), entry `ATCGAAAGGTCGAGGTGAGTAAAGAGAAAGGGAA`
2

Form: Entry = `CTACCAAGGTGAACAAGGTTGTTGATTACTATTC` | System = PXR:RXRa (NR concentration 270 nM, RXRa partner concentration 90 nM) | PBM binding z-score = ____
1.04

Give PXR:RXRa (NR concentration 270 nM, RXRa partner concentration 90 nM) PBM binding z-score for `GCTGCTAGGTCAGCTTGGTCAGCTAACGGGTACG`
0.168

GET /values?readout=PBM binding z-score&system=PXR:RXRa (NR concentration 270 nM, RXRa partner concentration 90 nM)&item= `CAAACTGGGTCAAAGGTCAAAGTCGAGCCAACCA`
6.91

Which measured PBM binding z-score belongs to `TATAGAGGGTCAAAGGCCAGAGTACGAATGTCGA` , tested on PXR:RXRa (NR concentration 270 nM, RXRa partner concentration 90 nM)?
3.62

What measured PBM binding z-score is associated with `CTCGAAAGGTCGGTTGAGGTGTGTATACGGATAA` on PXR:RXRa (NR concentration 270 nM, RXRa partner concentration 90 nM)?
1.43

Lab request: please report PBM binding z-score under test system PXR:RXRa (NR concentration 270 nM, RXRa partner concentration 90 nM) for `ATATGTAGGTTAGCTGGGGTCATTCGGACTAGGC`
6.74

// lookup PBM binding z-score | system=PXR:RXRa (NR concentration 270 nM, RXRa partner concentration 90 nM) | key= `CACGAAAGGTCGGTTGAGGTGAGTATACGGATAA`
3.42

# returns recorded PBM binding z-score (system: PXR:RXRa (NR concentration 270 nM, RXRa partner concentration 90 nM)) for `CGAACTAGGTCAGAACAGGACACTGAAGGATGAT`
0.996

Observed PBM binding z-score on PXR:RXRa (NR concentration 270 nM, RXRa partner concentration 90 nM) for `CCTTCTGGGCCAAAGGTCATTGATTCCAATGCTC` , please.
5.52

Request body: readout PBM binding z-score, system PXR:RXRa (NR concentration 270 nM, RXRa partner concentration 90 nM), query `CCTTGCGGGTCACGAGGTTATAGCACGACGAGCG` . Return the value.
4.41
